Cited source: patent US6573247B1

System: human embryonic lung fibroblast (HEL) cells
testDescription: CC50 in tissue culture assay
Type: cell-based
conditionSet: Table I; read-out: CC50/μM
recordedEndpoint: CC50

Item CCCCCCCCCCCCc1cc2cn([C@H]3C[C@H](O)[C@@H](CO)O3)c(=O)nc2o1 [Example 1] has what recorded CC50?
> 200 µM

====

Tested on: varicella zoster virus (VZV) (strains OKa and YS)
testDescription: microbe, parasite or virus in culture
Assay type: cell-based
conditionSet: Table V; read-out: EC50/VZV/μM
recordedEndpoint: EC50 (µM)
Write the number in µM without appending the unit.

Observed EC50 on varicella zoster virus (VZV) (strains OKa and YS) for O=c1nc2oc(CCCO)cc2cn1[C@H]1C[C@H](O)[C@@H](CO)O1 , please.
9.7

Then O=c1nc2oc(CCCCO)cc2cn1[C@H]1C[C@H](O)[C@@H](CO)O1 ?
29
